pIC50 listing for selected compounds.
- assayed-target: b-Raf (V600E) (Homo sapiens (Human), UniProt P15056, V600E)
- Sequence (P15056 whole entry V600E): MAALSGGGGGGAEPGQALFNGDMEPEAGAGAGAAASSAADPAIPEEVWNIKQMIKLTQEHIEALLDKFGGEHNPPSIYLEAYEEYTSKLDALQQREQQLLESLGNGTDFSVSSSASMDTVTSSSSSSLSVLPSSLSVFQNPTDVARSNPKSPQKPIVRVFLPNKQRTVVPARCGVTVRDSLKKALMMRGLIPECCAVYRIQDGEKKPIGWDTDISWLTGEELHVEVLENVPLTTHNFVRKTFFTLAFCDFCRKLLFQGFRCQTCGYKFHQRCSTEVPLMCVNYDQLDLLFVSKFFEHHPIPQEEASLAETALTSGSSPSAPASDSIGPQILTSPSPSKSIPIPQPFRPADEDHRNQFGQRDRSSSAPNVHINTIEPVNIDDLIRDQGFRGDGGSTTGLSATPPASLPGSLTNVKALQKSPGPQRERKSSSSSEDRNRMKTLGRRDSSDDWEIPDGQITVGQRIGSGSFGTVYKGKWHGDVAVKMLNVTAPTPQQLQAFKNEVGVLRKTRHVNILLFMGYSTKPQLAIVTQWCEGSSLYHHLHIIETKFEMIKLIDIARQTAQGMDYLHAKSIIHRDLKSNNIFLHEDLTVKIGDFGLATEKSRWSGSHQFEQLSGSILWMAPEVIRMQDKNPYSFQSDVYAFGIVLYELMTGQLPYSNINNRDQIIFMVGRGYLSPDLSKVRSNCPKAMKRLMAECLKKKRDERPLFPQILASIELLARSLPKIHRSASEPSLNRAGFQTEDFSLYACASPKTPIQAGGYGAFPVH
- run-parameters: read-out: b-Raf IC-50; AlphaScreen, 60 min pre-incubation, reaction 3 hours at room temperature
pIC50 is defined as minus the log10 of a concentration measured in mol/L.

Examples from the recorded data:
1) Cc1ncc(NC(=O)c2ccnc(C(F)(F)F)c2)cc1-c1cnc(OC(F)F)c(N2CCOCC2)c1 [Example 978]	8.73
2) CCN1CCN(c2cc(C(=O)Nc3cnc(C)c(-c4cc(N5CCOCC5)nc(N5CC(O)C5)c4)c3)cc(C(F)(F)F)c2)CC1 [Example 1087]	7.58
3) Cc1ncc(NC(=O)c2cc(C(C)(F)F)ccn2)cc1-c1cnc(OCCO)c(N2CCOCC2)c1 [Example 974]	8.56

Continue with the next compound.
Exam item: Can you share its pIC50? I mean this compound: Cc1ccc(NC(=O)c2cc(C(C)(C)F)ccn2)cc1-c1cc(N2CCOCC2)c(=O)n(C)c1 [Example 907]
Marked response: 8.35

* * *

- assayed-target: b-Raf (V600E) (Homo sapiens (Human), UniProt P15056, V600E)
- run-parameters: read-out: b-Raf IC-50; AlphaScreen, 60 min pre-incubation, reaction 3 hours at room temperature
parameter-measured: IC50 (nM)
State just the number; it will be interpreted in nM.

Examples from the recorded data:
1) Cc1ncc(NC(=O)c2cc(C(C)(C)F)ccn2)cc1-c1cnc(OC(C)C)c(N2CCOCC2)c1	6.23
2) Cc1ccc(C(=O)Nc2cccc(C(F)(F)F)c2)cc1-c1nc2c(c(N3CCOCC3)n1)CNC2	3.3
3) Cc1ccc(NC(=O)c2ccnc(C3(C#N)CC3)c2)cc1-c1cc(N2CCOCC2)nc(N2CC(C)(O)C2)c1	2.09
4) CCOc1ccc(-c2cc(NC(=O)c3ccnc(C(C)(C)F)c3)cnc2C)nc1N1CCOCC1	8.48
5) Cc1ccc(NC(=O)c2ccnc(C3CC3)c2)cc1-c1cnc(OCCO)c(N2CCOCC2)c1	0.91
6) Cc1ncc(NC(=O)c2cc(CN(C)C)cc(C(F)(F)F)c2)cc1-c1cc(N2CCOCC2)nc(N2CC(O)C2)c1	108

Exam item: Can you share its IC50? I mean this compound: Cc1ncc(NC(=O)c2cncc(C(F)(F)F)c2)cc1-c1cc(N2CCOCC2)c(OCC(F)F)nn1
Marked response: 0.8

Exam item: Can you share its IC50? I mean this compound: Cc1ncc(NC(=O)c2ccnc(C(F)(F)F)c2)cc1-c1cc(N2CCOCC2)nc(N2CC(O)C2)c1
Marked response: 4.06

Exam item: Can you share its IC50? I mean this compound: Cc1ncc(NC(=O)c2cccc(C(F)F)c2)cc1-c1cc(NCCO)nc(N2CCOCC2)c1
Marked response: 2.86

Exam item: Can you share its IC50? I mean this compound: CCC(F)(F)c1cc(C(=O)Nc2cnc(C)c(-c3cc(NCCO)nc(N4CCOCC4)c3)c2)ccn1
Marked response: 10.8

Exam item: Can you share its IC50? I mean this compound: Cc1ccc(NC(=O)c2ccnc(C(F)(F)F)c2)cc1-c1cc(N2CCOCC2)nc(N2CCC(O)C2)c1 (centres unmarked)
Marked response: 2.24

* * *

- assayed-target: b-Raf (V600E) (Homo sapiens (Human), UniProt P15056, V600E)
- run-parameters: read-out: b-Raf IC-50; Table 2; AlphaScreen, 3 hours reaction
Response field label: string, one of criterion met (IC50 strictly below 4 nM) or criterion not met.

1. Cc1ccc(NC(=O)c2cccc(C(F)(F)F)c2)cc1-c1cc(N2CCOCC2)c(=O)n(CC2(C)COC2)c1	criterion not met
2. Cc1ncc(NC(=O)c2ccnc(C(C)(C)F)c2)cc1-c1cnc(N(C)C)c(N2CCOCC2)c1	criterion met

Exam item: Determine whether this compound shows IC50 lower than 4 nM (ties excluded): Cc1ccc(NC(=O)c2cccc(C(F)F)c2)cc1-c1cc(N2CCOCC2)c(=O)n(C)n1
Marked response: criterion met

Exam item: Determine whether this compound shows IC50 lower than 4 nM (ties excluded): Cc1ccc(NC(=O)c2cccc(C(F)(F)F)c2)cc1-c1cn(C)c(=O)c(N2CCOCC2)n1
Marked response: criterion met

Exam item: Determine whether this compound shows IC50 lower than 4 nM (ties excluded): Cc1ccc(NC(=O)c2cccc(OC(F)(F)F)c2)cc1-c1cc(N2CCOCC2)nc(N2CCOCC2)n1
Marked response: criterion met

Origin of values: patent US9694016B2
